- target or system: Neuronal acetylcholine receptor; alpha4/beta2 (Homo sapiens, UniProt P17787+P43681)
- Sequence (P17787 whole entry): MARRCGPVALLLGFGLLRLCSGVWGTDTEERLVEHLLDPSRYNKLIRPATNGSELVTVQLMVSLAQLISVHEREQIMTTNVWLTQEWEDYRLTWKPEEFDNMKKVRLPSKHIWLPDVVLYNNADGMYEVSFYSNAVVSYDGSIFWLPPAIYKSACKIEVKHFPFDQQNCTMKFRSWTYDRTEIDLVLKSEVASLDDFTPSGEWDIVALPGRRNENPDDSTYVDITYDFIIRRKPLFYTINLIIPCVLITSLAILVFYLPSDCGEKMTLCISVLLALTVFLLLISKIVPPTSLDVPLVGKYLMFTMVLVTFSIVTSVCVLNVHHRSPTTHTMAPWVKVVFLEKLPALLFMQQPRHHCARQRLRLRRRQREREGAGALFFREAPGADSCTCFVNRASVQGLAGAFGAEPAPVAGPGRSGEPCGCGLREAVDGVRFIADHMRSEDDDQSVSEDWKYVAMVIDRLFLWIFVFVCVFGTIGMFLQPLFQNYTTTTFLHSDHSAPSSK
- Sequence (P43681 whole entry): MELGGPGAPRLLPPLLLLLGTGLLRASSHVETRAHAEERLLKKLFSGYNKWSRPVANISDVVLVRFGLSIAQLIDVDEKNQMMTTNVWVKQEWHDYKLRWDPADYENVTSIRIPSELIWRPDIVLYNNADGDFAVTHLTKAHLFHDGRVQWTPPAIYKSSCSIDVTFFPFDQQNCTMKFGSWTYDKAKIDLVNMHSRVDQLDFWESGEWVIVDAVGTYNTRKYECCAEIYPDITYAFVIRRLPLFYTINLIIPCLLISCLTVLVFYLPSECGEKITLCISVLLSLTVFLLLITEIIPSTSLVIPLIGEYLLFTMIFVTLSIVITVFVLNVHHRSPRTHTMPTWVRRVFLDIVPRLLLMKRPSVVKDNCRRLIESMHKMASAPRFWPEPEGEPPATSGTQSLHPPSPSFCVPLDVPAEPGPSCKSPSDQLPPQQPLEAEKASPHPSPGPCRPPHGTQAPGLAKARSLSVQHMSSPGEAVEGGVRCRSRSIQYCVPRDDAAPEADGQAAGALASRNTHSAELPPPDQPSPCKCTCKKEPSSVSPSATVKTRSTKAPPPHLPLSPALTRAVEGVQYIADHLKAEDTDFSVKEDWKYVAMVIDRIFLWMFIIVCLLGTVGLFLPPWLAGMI
- assay name: Stimulation of cation efflux in human nAChR alpha4-beta2 expressing K177 cells
pEC50: −log10 of the molar value.

- molecule: "CCc1cncc(OC[C@@H]2CCCN2C)c1"
  target or system: "Neuronal acetylcholine receptor; alpha4/beta2 (Homo sapiens, UniProt P17787+P43681)"
  censor symbol: "="
  pEC50: 6.00
- molecule: "CCCc1cncc(OC[C@@H]2CCCN2C)c1"
  target or system: "Neuronal acetylcholine receptor; alpha4/beta2 (Homo sapiens, UniProt P17787+P43681)"
  censor symbol: "<"
  pEC50: 3.00
- molecule: "CN1CCC[C@H]1COc1cnccc1Br"
  target or system: "Neuronal acetylcholine receptor; alpha4/beta2 (Homo sapiens, UniProt P17787+P43681)"
  censor symbol: "<"
  pEC50: 3.00
- molecule: "Cc1ccncc1OC[C@@H]1CCCN1C"
  target or system: "Neuronal acetylcholine receptor; alpha4/beta2 (Homo sapiens, UniProt P17787+P43681)"
  censor symbol: "="
  pEC50: 5.68
- molecule: "CCCCc1cncc(OC[C@@H]2CCCN2C)c1"
  target or system: "Neuronal acetylcholine receptor; alpha4/beta2 (Homo sapiens, UniProt P17787+P43681)"
  censor symbol: "<"
  pEC50: 3.00
- molecule: "Cc1cncc(OC[C@@H]2CCCN2C)c1"
  target or system: "Neuronal acetylcholine receptor; alpha4/beta2 (Homo sapiens, UniProt P17787+P43681)"
  censor symbol: "="
  pEC50: 5.64
- molecule: "Cc1ccc(OC[C@@H]2CCCN2C)cn1"
  target or system: "Neuronal acetylcholine receptor; alpha4/beta2 (Homo sapiens, UniProt P17787+P43681)"
  censor symbol: "="
  pEC50: 5.66
